Exercise: state measured relative binding activity (% of WT) for each of the binders provided.
Target: T1, EGFI-Cr1 wild type (first EGF-like repeat of human EpCAM fused to the constant region of human immunoglobulin … (human, UniProt P01857-1 99-330 = IgG part))
T1 construct: cDNA covered aa 1-63; Expressed in COS-7 cells; also called WT; EpCAM EGF-1 fusion protein WT
Experiment: direct ELISA, coated EGFI-Cr1 fusion, 0.1 µg/ml antibody
# number only, unit % dropped from output

Exercise: Fill in the blank: the reported relative binding activity (% of WT) of murine monoclonal antibody 1G10 (antibody, mouse IgG1, V domains shown, Mouse IgG1, kappa, from hybridoma; also called m290-1G10) VH: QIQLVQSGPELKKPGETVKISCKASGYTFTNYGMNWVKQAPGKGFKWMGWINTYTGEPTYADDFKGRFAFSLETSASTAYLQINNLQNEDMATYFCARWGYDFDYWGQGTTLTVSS VL: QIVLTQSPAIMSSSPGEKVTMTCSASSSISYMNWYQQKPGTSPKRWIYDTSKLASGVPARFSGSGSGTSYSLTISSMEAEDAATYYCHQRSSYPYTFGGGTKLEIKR is ____.
Solution: 100

Exercise: Item under review: murine monoclonal antibody 6D11 (antibody, mouse IgG1, V domains shown, Mouse IgG1, kappa, from hybridoma; also called m338-6D11.8) VH: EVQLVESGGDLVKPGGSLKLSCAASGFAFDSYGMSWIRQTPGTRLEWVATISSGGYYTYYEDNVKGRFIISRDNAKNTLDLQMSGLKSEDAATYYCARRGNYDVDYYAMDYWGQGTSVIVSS VL: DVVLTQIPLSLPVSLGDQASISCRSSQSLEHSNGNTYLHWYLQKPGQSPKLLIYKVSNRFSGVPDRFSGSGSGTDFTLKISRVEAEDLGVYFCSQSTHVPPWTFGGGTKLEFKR . Reported relative binding activity (% of WT)?
Solution: 100

Exercise: # get_value(readout='relative binding activity (% of WT)', item= murine monoclonal antibody 2D11 (antibody, mouse IgG1, V domains shown, Mouse IgG1, kappa, from hybridoma; also called m322-2D11.19) VH: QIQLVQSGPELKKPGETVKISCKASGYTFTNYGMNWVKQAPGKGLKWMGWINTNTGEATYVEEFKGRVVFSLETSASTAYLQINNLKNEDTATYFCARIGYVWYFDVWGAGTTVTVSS VL: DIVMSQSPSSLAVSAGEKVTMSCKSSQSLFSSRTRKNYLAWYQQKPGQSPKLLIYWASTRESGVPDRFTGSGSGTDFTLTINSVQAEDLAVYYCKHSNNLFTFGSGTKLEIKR )
Solution: 100
